Data origin: patent US7183287B2

biological target: human p38 kinase alpha (Homo sapiens, UniProt Q16539); construct: The coding region of the human p38a cDNA is obtained by PCR-amplification from RNA isolated from the human monocyte cell line THP.1; test: p38 kinase alpha in vitro assay (phosphorylation of PHAS-I with 32P-ATP or of EGFRP with 33P-ATP)
Sequence (Q16539 whole entry): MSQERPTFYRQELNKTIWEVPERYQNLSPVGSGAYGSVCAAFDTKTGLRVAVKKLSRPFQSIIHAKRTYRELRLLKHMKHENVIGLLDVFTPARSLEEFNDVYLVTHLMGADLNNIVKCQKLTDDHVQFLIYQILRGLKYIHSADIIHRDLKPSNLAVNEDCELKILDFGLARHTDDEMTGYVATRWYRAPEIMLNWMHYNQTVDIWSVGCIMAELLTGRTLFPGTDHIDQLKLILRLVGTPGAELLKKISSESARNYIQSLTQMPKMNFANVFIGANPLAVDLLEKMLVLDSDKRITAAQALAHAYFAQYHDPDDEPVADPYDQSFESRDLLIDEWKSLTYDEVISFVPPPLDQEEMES
Would you mind telling me the reported IC50 of each entry?

[[record]]
smiles_code = "COC(=O)c1ccc(C)c(-n2c(C)nc(OCc3ccc(F)cc3F)c(Br)c2=O)c1"
reported = "< 5 µM"

[[record]]
smiles_code = "O=c1c(Br)c(OCc2ccccc2)ncn1Cc1ccccc1"
reported = "< 5 µM"


Request: Requested field: IC50. Item: CNC(=O)c1ccc(C)c(-n2c(C)nc(OCc3ccc(F)cc3F)c(Br)c2=O)c1
Result: < 5 µM
